Listed here: items and their measured Neutralization (IC50).
assay_system: HA of A/Beijing/262/95 (H1N1) (influenza A virus)
measurement_description: cell-based or functional assay
quantity_kind: Neutralization (IC50) (nM)

[[record]]
binder = "GL20 IgG (antibody, V domains shown) VH: QVQLQQSGPGLVKPSQTLSLTCAISGDSVSSYNAVWNWIRQSPSRGLEWLGRTYYRSGWYNDYAESVKSRITINPDTSKNQFSLQLNSVTPEDTAVYYCARSGHITVFGVNVDAFDMWGQGTMVTVSS VL: DIQMTQSPSSLSASVGDRVTITCRTSQSLSSYTHWYQQKPGKAPKLLIYAASSRGSGVPSRFSGSGSGTDFTLTISSLQPEDFATYYCQQSRTFGQGTKVEIK"
unit_name = "nM"
inequality_symbol = "="
data_value = 8.3

[[record]]
binder = "FY1 IgG (antibody, V domains shown) VH: QVQLQESGPGLVKPSQTLSLTCAISGDSVSSNNAVWNWIRQSPSRGLEWLGRTYYRSKWYNDYAESVKSRITVNPDTSKNQFSLHLKSVTPEDTAVFYCVRSGHITVFGVNVDAFDMWGQGTMVTVSS VL: DIQMTQSPSSLSASVGDRVTITCRTSQSLSSYLHWYQQKPGKAPKLLIYAASSLQSGVPSRFSGSGSGTDFTLTISSLQPEDFATYYCQQSRTFGQGTKVEIK"
unit_name = "nM"
inequality_symbol = "="
data_value = 21

[[record]]
binder = "FBC39 IgG (antibody, V domains shown) VH: EVQLVVSGGGLVKPGGSLRLSCAASGLSFLNAWMSWVRQAPGKGLEWVGRIKSNTDGGTTDYAAPVKGRFSISRDDSKNMLFLHMSSLRTEDTAVYYCATDGPYSDDFRSGYAARYRYFGMDVWGQGTTVTVSS VL: DIQMTQSPSSVSASVGDRVTITCRASQDISTWLAWYQQKPGKAPKLLIYAASSLQSGVPSRFSGSGSGTDFTLTISSLQPEDFATYFCQQANSFPPTFGQGTKLEIK"
unit_name = "nM"
inequality_symbol = ">"
data_value = 1000

[[record]]
binder = "FBD94 IgG (antibody, V domains shown) VH: EVQLVESGGGLVQPGRSLRLSCAVSGFIFEDYAINWVRQAPGKGLEWVSIISWDSGRIGYADSVRGRFTISRDNAKNSSFLQMNSLRPEDTAVYYCVKDMLAYYYDGSGIRYNLYGMDVWGQGTTVTVSS VL: EIVLTQSPATLSLSPGERATLSCRASRSITTFLAWYQQKPGQAPRLLIYDASNRATGVPARFSGSGSGTDFTLTINSLEPDDFAIYYCQQRDHWPPIFGQGTRLEIK"
unit_name = "nM"
inequality_symbol = ">"
data_value = 1000


The values you see were collected from patent US20180155413A1.
